Measured values drawn from paper PMC11447725 for this set.

assay: Pharmacokinetics of HHC in plasma after single oral administration in mice; type: in vivo; details: male, mouse, po, 40 mg/kg
Metric: MRT last (h)

{"Molecule": "COc1cc(CCC(=O)CC(O)CCc2ccc(O)c(OC)c2)ccc1O (stereo not shown) [HHC, hexahydrocurcumin]", "Unit Label": "h", "Numeric Readout": 1.61}

====

test: Tissue distribution of HHC; assay type: in vivo, mice; details: male, mouse, brain, ip, 40 mg/kg
Metric: Cmax (ng/mL)

{"Molecule": "COc1cc(CCC(=O)CC(O)CCc2ccc(O)c(OC)c2)ccc1O (stereo not shown) [HHC, hexahydrocurcumin]", "Numeric Readout": 120}

====

assay: Pharmacokinetics of HHC in plasma after single oral administration in mice; type: in vivo; conditions: male, mouse, po, 40 mg/kg, Tmax, oral 40 mg/kg, mice, n = 4

{"Compound": "COc1cc(CCC(=O)CC(O)CCc2ccc(O)c(OC)c2)ccc1O (stereo not shown) [HHC, hexahydrocurcumin]", "Tmax": "~15 min"}

====

assay: Tissue distribution of HHC; assay type: in vivo, mice; conditions: male, mouse, kidney, ip, 40 mg/kg

{"Compound": "COc1cc(CCC(=O)CC(O)CCc2ccc(O)c(OC)c2)ccc1O (stereo not shown) [HHC, hexahydrocurcumin]", "half-life, h": 1.7}

====

assay: Tissue distribution of HHC; type: in vivo, mice; conditions: male, mouse, liver, ip, 40 mg/kg

{"Compound": "COc1cc(CCC(=O)CC(O)CCc2ccc(O)c(OC)c2)ccc1O (stereo not shown) [HHC, hexahydrocurcumin]", "half-life / h": 1.74}

====

assay: Pharmacokinetics of HHC in plasma after single IP administration in mice; assay type: in vivo; settings: male, mouse, ip, 40 mg/kg
Metric: MRT inf (min)

{"Compound": "COc1cc(CCC(=O)CC(O)CCc2ccc(O)c(OC)c2)ccc1O (stereo not shown) [HHC, hexahydrocurcumin]", "Numeric Readout": 52.5}

====

assay: Pharmacokinetics of HHC in plasma after single oral administration in mice; type: in vivo; details: male, mouse, po, 40 mg/kg, T1/2, oral 40 mg/kg, mice, n = 4

{"Compound": "COc1cc(CCC(=O)CC(O)CCc2ccc(O)c(OC)c2)ccc1O (stereo not shown) [HHC, hexahydrocurcumin]", "half-life": "~2.17 h"}
